Biological target: Cannabinoid receptor 2 (Homo sapiens, UniProt P34972)
Sequence (P34972 whole entry): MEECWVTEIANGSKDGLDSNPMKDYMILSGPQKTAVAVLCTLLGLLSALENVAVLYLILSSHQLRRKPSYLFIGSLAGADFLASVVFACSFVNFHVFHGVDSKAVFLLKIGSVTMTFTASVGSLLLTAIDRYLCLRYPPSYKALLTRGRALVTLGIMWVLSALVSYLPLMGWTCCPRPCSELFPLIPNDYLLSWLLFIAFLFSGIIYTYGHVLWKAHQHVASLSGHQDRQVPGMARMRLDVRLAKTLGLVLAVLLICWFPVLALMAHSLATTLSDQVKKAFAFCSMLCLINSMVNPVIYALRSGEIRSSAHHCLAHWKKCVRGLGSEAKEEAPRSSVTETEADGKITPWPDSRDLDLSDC
Test: Agonist activity at human CB2 receptor expressed in CHO cells assessed as inhibition of forskolin-induced cAMP release relative to CP-55940
Assay type: functional, cell-based
The label Yes is reserved for Efficacy strictly under 80%; No covers values equal to or above it.

Look over these answered cases.
[
  {
    "Compound": "COc1ccc(Nc2ccc(CN3CCO[C@@H](c4ccccc4)C3)cn2)cc1",
    "Assigned category": "No"
  },
  {
    "Compound": "Clc1cccc(Nc2ccc(CN3CCO[C@@H](c4ccccc4)C3)cn2)c1Cl",
    "Assigned category": "Yes"
  },
  {
    "Compound": "c1ccc(Nc2ccc(CN3CCO[C@@H](c4ccccc4)C3)cc2)cc1",
    "Assigned category": "Yes"
  },
  {
    "Compound": "c1ccc(Nc2ccc(CN3CCO[C@@H](c4ccccc4)C3)cn2)cc1",
    "Assigned category": "Yes"
  },
  {
    "Compound": "O=C(NCC1CCOCC1)c1cnc(Nc2ccc(Cl)cc2Cl)nc1C(F)(F)F [GW842166X]",
    "Assigned category": "No"
  }
]

Prompt line: Does Fc1ccc(Nc2ccc(CN3CCO[C@@H](c4ccccc4)C3)cn2)cc1 have Efficacy strictly under 80%?
Response line: Yes

Prompt line: Bench note: check whether Clc1ccccc1-c1ccc(CN2CCO[C@@H](c3ccccc3)C2)cc1 shows Efficacy below 80%
Response line: Yes

Prompt line: Strictly below 80%: is that where Efficacy of FC(F)(F)c1ccccc1-c1ccc(CN2CCOC(c3ccccc3)C2)cc1 (racemic) sits?
Response line: Yes

Prompt line: Hello, I'm reviewing records and need to know if Efficacy of CN(Cc1ccc(-c2ccccc2C(F)(F)F)cc1)CC(O)c1ccccc1 (racemic) is below 80%. Could you check?
Response line: No

Prompt line: I wonder whether Clc1ccc(Nc2ccc(CN3CCO[C@@H](c4ccccc4)C3)cn2)c(Cl)c1 has Efficacy below 80%. Can you tell?
Response line: No

Prompt line: Strictly below 80%: is that where Efficacy of FC(F)(F)c1ccccc1-c1ccc(CN2CCCC(c3ccccc3)C2)cc1 (racemic) sits?
Response line: Yes

Prompt line: Threshold test, Efficacy < 80%: Cc1ccc(Cl)c(-c2ccc(CN3CCO[C@@H](c4ccccc4)C3)cc2)c1
Response line: Yes

Source listed as ChEMBL document CHEMBL1153325.
